tested on: biotinyl-Met-oxazolone; assay: self-aminoacylation, catalytic enhancement (BMO) (fold over background); higher = more active; k-Seq, kA / k0A0; sequences stand for … in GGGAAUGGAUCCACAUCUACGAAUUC…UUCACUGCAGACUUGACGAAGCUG
Variants at the floor of the assay were thinned out.
Each item that follows carries a reported self-aminoacylation.
Reply with the value as a number alone.

The following sequences have reported results that may help.
1) AAGUUUGCUAAUAGUCGCAAG [Fam3.1 aminoacylation ribozyme variant]    1.47
2) AUGCACCUAGGUCAUCGGUUG [Fam2.2 aminoacylation ribozyme variant]    1.26
3) CCACACUUCAAGCAAGCGGUG [Fam1B.1 aminoacylation ribozyme variant]    2.45

Determine its reported self-aminoacylation: AUUCACCUUCGUCAUCGGGUG [Fam2.2 aminoacylation ribozyme variant]
2.3

Determine its reported self-aminoacylation: AUUCACCUAGGCCACCGGGUG [Fam2.2 aminoacylation ribozyme variant]
5.04
